Test system: genes downstream of LXR
Experiment: qPCR of genes downstream of LXR in murine dermal fibroblasts
Type: cell-based, mouse
Conditions: 10^–7 M, 24 h
Protocol: All animal studies followed guidelines outlined by the NIH Guide for the Care and Use of Laboratory Animals and protocols were approved by the Institutional Animal Care and Use Committee at the NIEHS or the UAB. The study was carried out in compliance with the ARRIVE guidelines (http://www.nc3rs.org.uk/page.asp?id=1357). Skin samples from newborn C57BL/6 mice were collected at the NIEHS. Dermal fibroblasts were isolated from the skin of newborn mice, 1–2 day old. […]
Attribute measured: Cyp7a1 expression

(Q) Write down Cyp7a1 expression measured for item C=C1C(=CC=C2CCCC3(C)C2CCC3C(C)(O)CC(O)CC(C)C)CC(O)CC1O (stereo not shown)
(A) inhibited

(Q) Return value of Cyp7a1 expression for input CC(C)CCC[C@](C)(O)[C@H]1CC[C@H]2C3=CC=C4C[C@@H](O)CC[C@]4(C)[C@H]3CC[C@@]21C [20(OH)7DHC, reference compound] , no commentary.
(A) inhibited

(Q) Given C=C1/C(=C\C=C2/CCC[C@@]3(C)[C@H]2CC[C@@H]3[C@@](C)(O)CCCC(C)C)C[C@@H](O)C[C@@H]1O , respond with its Cyp7a1 expression.
(A) inhibited
